target: Aβ(1-42) globulomer formation (Homo sapiens); construct: Aβ(1-42) synthetic peptide (Cat. No. H-1368, Bachem, Switzerland); purchased Bachem H-1368; host or cells: chemical synthesis; oligomerised in house (HFIP, DMSO, 0.2% SDS or 0.5% fatty acid, dilution); experiment: Induction of Aβ(1-42) globulomer formation by fatty acids replacing SDS (SDS-PAGE); assay type: biochemical; details: fatty acid in place of SDS, neutral pH
Sequence (P05067 672-713 limits assumed): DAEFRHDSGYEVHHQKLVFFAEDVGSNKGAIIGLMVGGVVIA
Reported Property: Induction of the characteristic 38/48 kDa Aβ(1-42) globulomer

Worked examples, 4 compounds total:
chemical_smiles=CC/C=C\C/C=C\C/C=C\C/C=C\C/C=C\C/C=C\CCC(=O)O readout_value="could not generate"
chemical_smiles=CCCCCCCCCCCC(=O)O readout_value=induced
chemical_smiles=CCCCC/C=C\C/C=C\C/C=C\C/C=C\CCCC(=O)O readout_value=induced
chemical_smiles=CCCCCCCC/C=C\CCCCCCCC(=O)O readout_value=induced

Now for a further compound.
The reported value for `CCCCC/C=C\C/C=C\CCCCCCCC(=O)O` in terms of Induction of the characteristic 38/48 kDa Aβ(1-42) globulomer is could not generate
